The values you see were collected from ChEMBL document CHEMBL3885881.

- Species: Rattus norvegicus
- method: DrugMatrix - Regimen: Daily Repeat
- Format: toxicity, organism-based, Sprague-Dawley
- Set-up: regimen Daily Repeat, gender Male, age 6-8 weeks
- test parameters: in vivo, po, 0 mg/kg, 72 h, tissue Plasma, route oral GAVAGE, dose level Control, time 3 day, vehicle 100 % WATER
reported metric: ALANINE AMINOTRANSFERASE (u/L)
Report as a plain number; the unit u/L is understood.

Some solved cases for reference:
COc1ccc(C(CN(C)C)C2(O)CCCCC2)cc1 (stereo not drawn): 52.67
COc1cccc(C2(O)CCCCC2CN(C)C)c1 (stereo not drawn): 55.67
CC(CCc1ccccc1)NCC(O)c1ccc(O)c(C(N)=O)c1 (stereo not drawn): 50.83
NC(=O)c1ncn([C@@H]2O[C@H](CO)[C@@H](O)[C@H]2O)n1: 48.5
CC(C)(S)[C@@H](N)C(=O)O: 54.17

Item Clc1ccc(C(c2ccccc2Cl)C(Cl)Cl)cc1 (stereo not drawn) has what recorded ALANINE AMINOTRANSFERASE?
66

One more compound: NNC(=O)c1ccncc1
52.67
